system-tested: Macrophage scavenger receptor types I and II (Mus musculus)
experimental-details: Percent inhibition of DiI-acetyl-LDL binding to scavenger receptor of mouse peritoneal macrophages at 100 uM
Format: functional
Quick list: inhibition per entry.
quantity-kind: inhibition (%)

CCCCCCCCCCCCCCCCCC(=O)NC(COS(=O)(=O)O)C(=O)NCCCCCCCCCCCCCC (configuration not stated)	61.4
CCCCCCCCCCCCCCCCCC(=O)Nc1ccc(NC(=O)CCCCCCCCCCCCCCCCC)c(S(=O)(=O)O)c1	32.1
CCCCCCCCCCCCCCCCCC(=O)N1C[C@H](OS(=O)(=O)O)C[C@H]1C(=O)NCCCCCCCCCCCCCC	23.7
